# key: entry, value: reverse-splicing fitness
B1: Azoarcus group I ribozyme (parent)
chain: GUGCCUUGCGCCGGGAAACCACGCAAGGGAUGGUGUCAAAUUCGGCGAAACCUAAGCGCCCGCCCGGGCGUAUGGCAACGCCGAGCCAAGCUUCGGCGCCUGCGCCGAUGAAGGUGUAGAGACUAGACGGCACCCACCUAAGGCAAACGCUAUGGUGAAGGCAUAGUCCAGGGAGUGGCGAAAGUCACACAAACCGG

variants of: B1; test: reverse-splicing fitness (ratio to wild type); higher = more active; in vitro selection; Mg2+ level not given

mutation.key	reported.measurement
C82G A145C C150G C169A U176G	0.00487
A111C A120C A145C C150U C169G U176G	0.00592
C82A A120U A145G C150A U176C	0.0142
C82A A111U A120G A145C C150G C169U U176A	0.0132
C82U A111U A145U C150U U176C	0.103
C82U A111U A120U A145U C150U C169U U176A	0.00293
C82A A111U A145C C169U U176A	0.016
C82A A120C A145C C169U U176C	0.0127

Q. Fill in the blank: the reported reverse-splicing fitness of C82U A111G A145C C150U C169A U176G is ____.
A. 0.00526

Q. Fill in the blank: the reported reverse-splicing fitness of C82U A111C A120U A145G C169G is ____.
A. 0.0042

Q. Fill in the blank: the reported reverse-splicing fitness of A111G A120G A145U C169U U176C is ____.
A. 0.093
